Item-by-item account of TGI
Test system: SR leukemia
Test: NCI tumour cell line growth inhibition, 48 h
parameter: TGI

> print(dat)
                                    compound     result
 1  CC[C@@]1(O)C(=O)OCc2c1c(Cl)c1n(c2=O)Cc2cc3ccccc3nc2-1  > 23.7 µM
 2             C/C(C=O)=N\Nc1cc(C)c2ccccc2n1    4.17 µM
 3  CC(=O)c1c2c(cc3c1CC1(Cc4cc5c(cc4C1)CCC5)C3)CCC2   > 100 µM
 4  COc1ccc(NC(=O)C2=C(SC)C(C#N)C(=O)N=C2N)cc1 (stereo not given)   > 100 µM
 5  CC(=O)OCC(OC(C)=O)C(OC(C)=O)C(/C=N/N(C(C)=O)S(=O)(=O)c1ccc(/C=C2\NC(=O)NC2=O)cc1)OC(C)=O (stereo not given)   > 100 µM
 6  C/C(C=O)=C1\C(O)C[C@]1(C)C1CC(C)(C)CC1O (stereo not given in full)   > 100 µM
 7  CCCCOC(=O)/C(CC(=O)C=C(C)C)=N\NS(=O)(=O)c1ccc(C)cc1    71.8 µM
 8  Cc1ccc2c(c1)C(C1Cc3c(C)cccc3C1=O)OC2=O (stereo not given)   > 100 µM
 9  CC(=O)/C=C1/c2ccccc2N(C(C)=O)C1O (stereo not given)   > 100 µM
10  COc1ccc(C2(CN(C)C)COc3cc(OC)c(OC)cc3C2=O)cc1OC (stereo not given)   > 100 µM

Cited source: PubChem BioAssay (NCI)
